Catalogue of compounds with associated MIC
test system: Bacillus subtilis; experiment: Antimicrobial activity against Bacillus subtilis CGMCC 1.1162 after 24 hrs by modified microdilution method; format: functional; conditions: CGMCC 1.1162, 24 h
measuredMetric: MIC (µg/mL)

INSERT INTO measurements (compound, targetortestsystem, comparator, measurement) VALUES
  ('COC(=O)[C@]1(C)CCC[C@]2(C)c3ccc(C(C)C)cc3CC[C@@H]12 [METHYL DEHYDROABIETATE]', 'Bacillus subtilis', '>', 100),
  ('COC(=O)[C@]1(C)CCC[C@]2(C)c3ccc(C(C)C)cc3-c3[nH]c4ccc([N+](=O)[O-])cc4c3[C@@H]12', 'Bacillus subtilis', '=', 7.8),
  ('COC(=O)[C@]1(C)CCC[C@]2(C)c3ccc(C(C)C)cc3-c3[nH]c4c(C)cccc4c3[C@@H]12', 'Bacillus subtilis', '>', 100),
  ('COC(=O)[C@]1(C)CCC[C@]2(C)c3ccc(C(C)C)cc3-c3[nH]c4c(OC)cccc4c3[C@@H]12', 'Bacillus subtilis', '>', 100),
  ('COC(=O)[C@]1(C)CCC[C@]2(C)c3ccc(C(C)C)cc3-c3[nH]c4ccc(OC)cc4c3[C@@H]12', 'Bacillus subtilis', '=', 62.5),
  ('COC(=O)[C@]1(C)CCC[C@]2(C)c3ccc(C(C)C)cc3-c3[nH]c4c(Cl)cccc4c3[C@@H]12', 'Bacillus subtilis', '=', 31.2),
  ('COC(=O)[C@]1(C)CCC[C@]2(C)c3ccc(C(C)C)cc3-c3[nH]c4ccc(Br)cc4c3[C@@H]12', 'Bacillus subtilis', '=', 15.6);

###

test system: Aspergillus niger; assay: Antimicrobial activity against Aspergillus niger CGMCC 3.316 after 48 hrs by modified microdilution method; type: functional; conditions: CGMCC 3.316, 48 h
measuredMetric: MIC

INSERT INTO measurements (molecule, measurement) VALUES
  ('COC(=O)[C@]1(C)CCC[C@]2(C)c3ccc(C(C)C)cc3-c3[nH]c4ccccc4c3[C@@H]12', '> 100 µg/mL'),
  ('COC(=O)[C@]1(C)CCC[C@]2(C)c3ccc(C(C)C)cc3-c3[nH]c4ccc(F)cc4c3[C@@H]12', '> 100 µg/mL'),
  ('CC(=O)N1CCN(c2ccc(OCC3COC(Cn4ccnc4)(c4ccc(Cl)cc4Cl)O3)cc2)CC1 (configuration not stated)', '7.8 µg/mL'),
  ('COC(=O)[C@]1(C)CCC[C@]2(C)c3ccc(C(C)C)cc3-c3[nH]c4c(Br)cccc4c3[C@@H]12', '> 100 µg/mL'),
  ('COC(=O)[C@]1(C)CCC[C@]2(C)c3ccc(C(C)C)cc3-c3[nH]c4c(F)cccc4c3[C@@H]12', '62.5 µg/mL'),
  ('COC(=O)[C@]1(C)CCC[C@]2(C)c3ccc(C(C)C)cc3CC[C@@H]12 [METHYL DEHYDROABIETATE]', '> 100 µg/mL'),
  ('COC(=O)[C@]1(C)CCC[C@]2(C)c3ccc(C(C)C)cc3-c3[nH]c4ccc(C)cc4c3[C@@H]12', '> 100 µg/mL');

###

# reported MIC; entries follow
system: Escherichia coli; assay: Antimicrobial activity against Escherichia coli CGMCC 1.1571 after 24 hrs by modified microdilution method; assay type: functional; details: CGMCC 1.1571, 24 h
measuredMetric: MIC

INSERT INTO results (molecule, targetortestsystem, measurement) VALUES
  ('CCOc1ccc2[nH]c3c(c2c1)[C@H]1[C@](C)(C(=O)OC)CCC[C@]1(C)c1ccc(C(C)C)cc1-3', 'Escherichia coli', '62.5 µg/mL'),
  ('COC(=O)[C@]1(C)CCC[C@]2(C)c3ccc(C(C)C)cc3-c3[nH]c4ccc([N+](=O)[O-])cc4c3[C@@H]12', 'Escherichia coli', '15.6 µg/mL'),
  ('COC(=O)[C@]1(C)CCC[C@]2(C)c3ccc(C(C)C)cc3-c3[nH]c4ccc(C)cc4c3[C@@H]12', 'Escherichia coli', '> 100 µg/mL'),
  ('COC(=O)[C@]1(C)CCC[C@]2(C)c3ccc(C(C)C)cc3-c3[nH]c4c(C)cccc4c3[C@@H]12', 'Escherichia coli', '> 100 µg/mL'),
  ('COC(=O)[C@]1(C)CCC[C@]2(C)c3ccc(C(C)C)cc3-c3[nH]c4ccc(OC)cc4c3[C@@H]12', 'Escherichia coli', '> 100 µg/mL'),
  ('COC(=O)[C@]1(C)CCC[C@]2(C)c3ccc(C(C)C)cc3-c3[nH]c4c(Br)cccc4c3[C@@H]12', 'Escherichia coli', '> 100 µg/mL'),
  ('COC(=O)[C@]1(C)CCC[C@]2(C)c3ccc(C(C)C)cc3C(=O)C[C@@H]12', 'Escherichia coli', '> 100 µg/mL'),
  ('COC(=O)[C@]1(C)CCC[C@]2(C)c3ccc(C(C)C)cc3-c3[nH]c4ccc(Br)cc4c3[C@@H]12', 'Escherichia coli', '31.2 µg/mL'),
  ('COC(=O)[C@]1(C)CCC[C@]2(C)c3ccc(C(C)C)cc3-c3[nH]c4ccc(Cl)cc4c3[C@@H]12', 'Escherichia coli', '15.6 µg/mL'),
  ('COC(=O)[C@]1(C)CCC[C@]2(C)c3ccc(C(C)C)cc3CC[C@@H]12 [METHYL DEHYDROABIETATE]', 'Escherichia coli', '> 100 µg/mL'),
  ('COC(=O)[C@]1(C)CCC[C@]2(C)c3ccc(C(C)C)cc3-c3[nH]c4c(F)cccc4c3[C@@H]12', 'Escherichia coli', '31.2 µg/mL'),
  ('COC(=O)[C@]1(C)CCC[C@]2(C)c3ccc(C(C)C)cc3-c3[nH]c4ccccc4c3[C@@H]12', 'Escherichia coli', '> 100 µg/mL'),
  ('COC(=O)[C@]1(C)CCC[C@]2(C)c3ccc(C(C)C)cc3-c3[nH]c4c(OC)cccc4c3[C@@H]12', 'Escherichia coli', '> 100 µg/mL');

###

tested on: Bacillus subtilis; assay: Antimicrobial activity against Bacillus subtilis CGMCC 1.1162 after 24 hrs by modified microdilution method; type: functional; conditions: CGMCC 1.1162, 24 h
Listed here: items and their measured MIC.
measuredMetric: MIC (µg/mL)

INSERT INTO assay_data (smilesrepr, measuredmetric, measurement) VALUES
  ('COC(=O)[C@]1(C)CCC[C@]2(C)c3ccc(C(C)C)cc3-c3[nH]c4c(F)cccc4c3[C@@H]12', 'MIC', 7.8),
  ('COC(=O)[C@]1(C)CCC[C@]2(C)c3ccc(C(C)C)cc3-c3[nH]c4ccccc4c3[C@@H]12', 'MIC', 31.2),
  ('COC(=O)[C@]1(C)CCC[C@]2(C)c3ccc(C(C)C)cc3-c3[nH]c4ccc(Cl)cc4c3[C@@H]12', 'MIC', 3.9),
  ('CCOc1ccc2[nH]c3c(c2c1)[C@H]1[C@](C)(C(=O)OC)CCC[C@]1(C)c1ccc(C(C)C)cc1-3', 'MIC', 62.5);

###

The entries below come with measured MIC values attached.
test system: Escherichia coli; assay: Antimicrobial activity against Escherichia coli CGMCC 1.1571 after 24 hrs by modified microdilution method; assay type: functional; details: CGMCC 1.1571, 24 h
measuredMetric: MIC (µg/mL)

INSERT INTO results (smilesrepr, targetortestsystem, comparator, measurement) VALUES
  ('COC(=O)[C@]1(C)CCC[C@]2(C)c3ccc(C(C)C)cc3-c3[nH]c4c(Cl)cccc4c3[C@@H]12', 'Escherichia coli', '>', 100),
  ('NCC[C@H](O)C(=O)N[C@@H]1C[C@H](N)[C@@H](O[C@H]2O[C@H](CN)[C@@H](O)[C@H](O)[C@H]2O)[C@H](O)[C@H]1O[C@H]1O[C@H](CO)[C@@H](O)[C@H](N)[C@H]1O', 'Escherichia coli', '=', 1.9),
  ('COC(=O)[C@]1(C)CCC[C@]2(C)c3ccc(C(C)C)cc3-c3[nH]c4ccc(F)cc4c3[C@@H]12', 'Escherichia coli', '=', 15.6);
